- Test system: Lepidium sativum L. seeds
- Test settings: 0.10% (w/w) compound in the medium, 24 h incubation, mean(±SD), n = 3
Recorded metric: Inhibition of the Lepidium sativum seeds germination (ISG, %)

{"Compound": "N[C@@H](Cc1c[nH]c2ccccc12)C(=O)O.OCCN(CCO)CCO [[TEA][Trp]]", "Test value": "12.0(±0.8) %"}
{"Compound": "N[C@@H](Cc1ccccc1)C(=O)O.OCCN(CCO)CCO [[TEA][Phe]]", "Test value": "1.8(±0.9) %"}
{"Compound": "NC(=O)C[C@H](N)C(=O)O.OCCN(CCO)CCO [[TEA][Asn]]", "Test value": "9.3(±1.3) %"}
{"Compound": "NCCCC[C@H](N)C(=O)O.OCCN(CCO)CCO [[TEA][Lys]]", "Test value": "0.0(±0.0) %"}
{"Compound": "CC(C)[C@H](N)C(=O)O.OCCN(CCO)CCO [[TEA][Val]]", "Test value": "0.0(±1.2) %"}

Entry O=C(O)[C@@H]1CCCN1.OCCN(CCO)CCO [[TEA][Pro]] : Inhibition of the Lepidium sativum seeds germination (ISG, %) on Lepidium sativum L. seeds = 16.7(±0.8) %

Entry N[C@@H](CC(=O)O)C(=O)O.OCCN(CCO)CCO [[TEA][Asp]] : Inhibition of the Lepidium sativum seeds germination (ISG, %) on Lepidium sativum L. seeds = 0.0(±0.0) %

---

- Tested on: Lepidium sativum L. roots
- Test settings: 0.01% (w/w) compound in the medium, 24 h incubation, mean(±SD), n = 3
Recorded metric: Inhibition of the root growth in pregerminated Lepidium sativum seeds (IRG, %)

Entry N[C@@H](CC(=O)O)C(=O)O.OCCN(CCO)CCO.OCCN(CCO)CCO [[TEA]2[Asp]] : Inhibition of the root growth in pregerminated Lepidium sativum seeds (IRG, %) on Lepidium sativum L. roots = 7.7(±1.9) %

Entry NC(CCC(=O)O)C(=O)O.OCCN(CCO)CCO.OCCN(CCO)CCO (stereo not shown) [[TEA]2[Glu]] : Inhibition of the root growth in pregerminated Lepidium sativum seeds (IRG, %) on Lepidium sativum L. roots = 10.0(±2.9%

---

- Test system: Lepidium sativum L. roots
- Test settings: 0.01% (w/w) compound in the medium, 24 h incubation, mean(±SD), n = 3
Recorded metric: Inhibition of the root growth in pregerminated Lepidium sativum seeds (IRG, %)
Quick reminder: number only, in %, skip the unit.

{"Compound": "CC(C)[C@H](N)C(=O)O.OCCN(CCO)CCO [[TEA][Val]]", "Value units": "%", "Test value": 11.6}
{"Compound": "N[C@@H](Cc1c[nH]c2ccccc12)C(=O)O.OCCN(CCO)CCO [[TEA][Trp]]", "Value units": "%", "Test value": 38.1}
{"Compound": "NCC(=O)O.OCCN(CCO)CCO [[TEA][Gly]]", "Value units": "%", "Test value": 8.7}

Next item in the queue.
Sample N[C@@H](Cc1ccccc1)C(=O)O.OCCN(CCO)CCO [[TEA][Phe]] ; Inhibition of the root growth in pregerminated Lepidium sativum seeds (IRG, %) observed: 23.6

---

Consider the following compounds and their measured ED80 readings.
- System: L929 fibroblasts
- Method: Mammalian cell cytotoxicity screening, resazurin viability
- Format: cell-based, mouse
- Test settings: 24h exposure
Quick reminder: number only, in %, skip the unit.

{"Compound": "O=C(O)[C@@H]1CCCN1.OCCN(CCO)CCO [[TEA][Pro]]", "Value units": "%", "Test value": 0.86}

Sample CC(C)C[C@H](N)C(=O)O.OCCN(CCO)CCO [[TEA][Leu]] ; ED80 observed: 0.93

Sample NCCCC[C@H](N)C(=O)O.OCCN(CCO)CCO [[TEA][Lys]] ; ED80 observed: 0.69

Sample CC(N)C(=O)O.OCCN(CCO)CCO [[TEA][Ala]] ; ED80 observed: 0.59

Sample N[C@@H](CC(=O)O)C(=O)O.OCCN(CCO)CCO [[TEA][Asp]] ; ED80 observed: 0.86

Sample CSCC[C@H](N)C(=O)O.OCCN(CCO)CCO [[TEA][Met]] ; ED80 observed: 0.74

Sample NC(CO)C(=O)O.OCCN(CCO)CCO [[TEA][Ser]] ; ED80 observed: 0.98

Sample CC(O)C(N)C(=O)O.OCCN(CCO)CCO [[TEA][Thr]] ; ED80 observed: 0.73

Sample N[C@@H](Cc1ccccc1)C(=O)O.OCCN(CCO)CCO [[TEA][Phe]] ; ED80 observed: 1.20

---

- Tested on: L929 fibroblasts
- Method: Mammalian cell cytotoxicity screening, resazurin viability
- Type: cell-based, mouse
- Test settings: 48h exposure
Lab note: cut-off is 0.8%. Strictly less in ED80 is rule met. Exactly 0.8% or more is rule not met.

Worked cases, answers included:
{"Compound": "CC(O)C(N)C(=O)O.OCCN(CCO)CCO [[TEA][Thr]]", "Assigned label": "rule met"}
{"Compound": "NCCCC[C@H](N)C(=O)O.OCCN(CCO)CCO [[TEA][Lys]]", "Assigned label": "rule met"}
{"Compound": "CC(N)C(=O)O.OCCN(CCO)CCO [[TEA][Ala]]", "Assigned label": "rule met"}

Turning now to a further compound:
Problem: For N[C@@H](Cc1ccccc1)C(=O)O.OCCN(CCO)CCO [[TEA][Phe]] , is the recorded ED80 below the cut-off of 0.8%?
Solution: rule not met

---

- Test system: Lepidium sativum L. seeds
- Test settings: 3.00% (w/w) compound in the medium, 24 h incubation, mean(±SD), n = 3
Recorded metric: Inhibition of the Lepidium sativum seeds germination (ISG, %)
Quick reminder: number only, in %, skip the unit.

{"Compound": "NC(CCC(=O)O)C(=O)O.OCCN(CCO)CCO (stereo not drawn) [[TEA][Glu]]", "Value units": "%", "Test value": 14.3}

Next item in the queue.
Sample CC(C)C[C@H](N)C(=O)O.OCCN(CCO)CCO [[TEA][Leu]] ; Inhibition of the Lepidium sativum seeds germination (ISG, %) observed: 58.5

---

- System: Lepidium sativum L. seeds
- Test settings: 0.10% (w/w) compound in the medium, 24 h incubation, mean(±SD), n = 3
Recorded metric: Inhibition of the Lepidium sativum seeds germination (ISG, %)

Here are 10 compounds together with their reported answers.
{"Compound": "CC(N)C(=O)O.OCCN(CCO)CCO [[TEA][Ala]]", "Test value": "0.0(±0.8) %"}
{"Compound": "CC(O)C(N)C(=O)O.OCCN(CCO)CCO [[TEA][Thr]]", "Test value": "11.3(±1.7) %"}
{"Compound": "N=C(N)NCCC[C@H](N)C(=O)O.OCCN(CCO)CCO [[TEA][Arg]]", "Test value": "0.0(±0.0) %"}
{"Compound": "CCC(C)C(N)C(=O)O.OCCN(CCO)CCO [[TEA][Ile]]", "Test value": "0.0(±0.5) %"}
{"Compound": "N[C@@H](CC(=O)O)C(=O)O.OCCN(CCO)CCO.OCCN(CCO)CCO [[TEA]2[Asp]]", "Test value": "9.1(±0.5) %"}
{"Compound": "NC(CCC(=O)O)C(=O)O.OCCN(CCO)CCO (stereo not shown) [[TEA][Glu]]", "Test value": "3.6(±0.8) %"}
{"Compound": "NC(=O)CCC(N)C(=O)O.OCCN(CCO)CCO (stereo not shown) [[TEA][Gln]]", "Test value": "1.7(±2.2) %"}
{"Compound": "CSCC[C@H](N)C(=O)O.OCCN(CCO)CCO [[TEA][Met]]", "Test value": "0.0(±0.1) %"}
{"Compound": "NC(CO)C(=O)O.OCCN(CCO)CCO [[TEA][Ser]]", "Test value": "2.8(±1.7) %"}
{"Compound": "NC(CCC(=O)O)C(=O)O.OCCN(CCO)CCO.OCCN(CCO)CCO (stereo not shown) [[TEA]2[Glu]]", "Test value": "3.7(±0.9) %"}

Sample CC(C)C[C@H](N)C(=O)O.OCCN(CCO)CCO [[TEA][Leu]] ; Inhibition of the Lepidium sativum seeds germination (ISG, %) observed: 6.6(±0.9) %

Sample NCC(=O)O.OCCN(CCO)CCO [[TEA][Gly]] ; Inhibition of the Lepidium sativum seeds germination (ISG, %) observed: 3.4 (±1.3) %

Sample N[C@@H](Cc1c[nH]cn1)C(=O)O.OCCN(CCO)CCO [[TEA][His]] ; Inhibition of the Lepidium sativum seeds germination (ISG, %) observed: 5.6(±0.5) %

---

- Tested on: Lepidium sativum L. roots
- Test settings: 0.01% (w/w) compound in the medium, 24 h incubation, mean(±SD), n = 3
Consider the following molecules and their measured Inhibition of the root growth in pregerminated Lepidium sativum seeds (IRG, %) readings.

Here are 3 molecules together with their reported answers.
{"Molecule": "NC(=O)C[C@H](N)C(=O)O.OCCN(CCO)CCO [[TEA][Asn]]", "Test value": "4.5(±1.6) %"}
{"Molecule": "NC(=O)CCC(N)C(=O)O.OCCN(CCO)CCO (centres unmarked) [[TEA][Gln]]", "Test value": "13.0(±2.0) %"}
{"Molecule": "CCC(C)C(N)C(=O)O.OCCN(CCO)CCO [[TEA][Ile]]", "Test value": "2.9(±1.7) %"}

Sample CC(C)C[C@H](N)C(=O)O.OCCN(CCO)CCO [[TEA][Leu]] ; Inhibition of the root growth in pregerminated Lepidium sativum seeds (IRG, %) observed: 0.0(±0.0) %

Sample O=C(O)[C@@H]1CCCN1.OCCN(CCO)CCO [[TEA][Pro]] ; Inhibition of the root growth in pregerminated Lepidium sativum seeds (IRG, %) observed: 0.0(±0.0) %
